- protocol: Cytotoxicity assay (MTT) in RAW264.7 cells
- Assay type: cell-based, mouse
- stated conditions: mouse, RAW264.7 cells; 3 μM; RAW264.7, MTT, 24 h; vehicle control = 100%; mean ± S.E., n=4; read-out: Cell Viability %
experimental endpoint: viability at 24 h, 3 µM (%)
Note: unit % is implicit; provide only the numeric part.

Ask | Param item = CC1(C)O[C@H]2CC(=O)OC[C@]23[C@H]2CC[C@@]4(C)[C@H](C5=CCOC5=O)OC(=O)[C@H]5O[C@]54[C@]2(C)C(=O)C[C@@H]13 [Compound 5, 21,23-Dihydro-21-oxolimonin] ; retrieve measured viability at 24 h, 3 µM.
Reply | 97.9

Ask | Also CC(=O)O[C@H]1CC(=O)OC(C)(C)[C@@H]2CC(=O)[C@]3(C)[C@H](CC[C@@]4(C)[C@H](C5=CC(=O)OC5O)OC(=O)[C@H]5O[C@]543)[C@@]12C (stereo partly shown) [Compound 1, 21,23-dihydro-21-hydroxy-23-oxonomilin] , if possible.
Reply | 102

Ask | Also CC1(C)OC(=O)C[C@H](O)[C@]2(C)[C@H]3CC[C@@]4(C)[C@H](c5ccoc5)OC(=O)[C@H]5O[C@]54[C@]3(C)C(=O)C[C@@H]12 , if possible.
Reply | 100

Ask | Also COC1C=C([C@@H]2OC(=O)[C@H]3O[C@@]34[C@@]2(C)CC[C@@H]2[C@@]3(C)[C@@H](OC(C)=O)CC(=O)OC(C)(C)[C@@H]3CC(=O)[C@]24C)C(=O)O1 (stereo partly shown) [Compound 2, 21,23-dihydro-23-methoxy-21-oxonomilin] , if possible.
Reply | 98.7

Ask | Also CC1(C)O[C@H]2CC(=O)OC[C@]23[C@H]2CC[C@@]4(C)[C@H](c5ccoc5)OC(=O)[C@H]5O[C@]54[C@]2(C)C(=O)C[C@@H]13 , if possible.
Reply | 95.6

Ask | Also COC1C=C([C@@H]2OC(=O)[C@H]3O[C@@]34[C@@]2(C)CC[C@@H]2[C@@]35COC(=O)C[C@@H]3OC(C)(C)[C@@H]5CC(=O)[C@]24C)C(=O)O1 (stereo partly shown) [Compound 4, 21,23-dihydro-23-methoxy-21-oxolimonin] , if possible.
Reply | 97

Ask | Also COC1OC(OC)C2(C3OC(=O)C4OC45C3(C)CCC3C46COC(=O)CC4OC(C)(C)C6CC(=O)C35C)OC12 (stereo not shown) , if possible.
Reply | 97.7

Ask | Also CC1(C)O[C@H]2CC(=O)OC[C@]23[C@H]2CC[C@@]4(C)[C@H](C5=CC(=O)OC5O)OC(=O)[C@H]5O[C@]54[C@]2(C)C(=O)C[C@@H]13 (stereo partly shown) , if possible.
Reply | 106

Ask | Also CC(C)(O)[C@@H]1CC(=O)[C@]2(C)[C@H](CC[C@@]3(C)[C@H](c4ccoc4)OC(=O)[C@H]4O[C@]432)[C@]12COC(=O)C[C@@H]2O , if possible.
Reply | 98.1

Ask | Also [H]/N=C(/NC)NCCC[C@H](N)C(=O)O [L-NMMA, N^G-monomethyl-L-arginine, acetate, reference compound] , if possible.
Reply | 102
